Target: T1, dNELF-E (Drosophila, UniProt P92204 1-280)
T1 sequence: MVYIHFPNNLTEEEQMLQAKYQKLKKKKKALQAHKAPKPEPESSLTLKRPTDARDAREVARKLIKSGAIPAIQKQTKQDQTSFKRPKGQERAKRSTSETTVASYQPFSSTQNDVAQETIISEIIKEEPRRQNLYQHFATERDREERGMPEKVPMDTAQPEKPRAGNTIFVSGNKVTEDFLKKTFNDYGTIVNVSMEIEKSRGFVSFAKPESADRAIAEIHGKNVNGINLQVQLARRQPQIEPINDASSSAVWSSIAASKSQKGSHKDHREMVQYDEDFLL
Test: fluorescence polarization; 10 mM HEPES-NaOH pH 7.5, 100 mM NaCl, 25 mM KCl, 1 mM MgCl2, 0.02% Tween-20, 0.01% IGEPAL CA-630, 10 µg/ml yeast tRNA; 2 nM RNA, 0-2000 nM protein, 1-2 h, binding temperature not stated; gel 5% acrylamide 0.5X TBE at 4 °C
Conditions: protein: recombinant; tags: N-terminal His6 (pHIS-parallel1); label: 3' fluorescein (5-thiosemicarbazide); hairpin; NBE base-paired
pKd: −log10 of the molar value.
TEST_READOUT: pKd

* GGCCCCACUGAGGAUGCCCACGGGCGUCCUCAGUGGGGCCA (structured_RNA) [Napt1+hairpin] | 6.33
